# MEASURED ON: rat Vasopressin 1 Receptor (V1), Avpr1a (gene 25107) (UniProt P30560)
# Sequence (P30560 whole entry, looked up): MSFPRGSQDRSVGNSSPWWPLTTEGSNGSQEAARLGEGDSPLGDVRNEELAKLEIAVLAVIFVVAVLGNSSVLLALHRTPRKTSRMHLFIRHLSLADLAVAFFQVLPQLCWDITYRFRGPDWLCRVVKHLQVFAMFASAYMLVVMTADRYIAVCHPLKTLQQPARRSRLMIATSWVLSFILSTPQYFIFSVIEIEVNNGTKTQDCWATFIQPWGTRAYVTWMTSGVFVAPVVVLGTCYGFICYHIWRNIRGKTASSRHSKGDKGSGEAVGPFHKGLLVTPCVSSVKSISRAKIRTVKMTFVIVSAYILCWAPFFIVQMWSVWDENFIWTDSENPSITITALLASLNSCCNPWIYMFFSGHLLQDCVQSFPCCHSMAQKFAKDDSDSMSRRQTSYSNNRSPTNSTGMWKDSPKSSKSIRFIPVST
# PROTOCOL: NVS_GPCR_rV1: NovaScreen (NVS) G Protein-Coupled Receptor Assay for rat Vasopressin 1 Receptor (V1) (AID 2283316)
Records with an inconclusive call do not appear. Calls of active or inactive are those of the source. Rule for the calls: active = hit-call score of the fitted dose curve at least 0.9, where 1 is the maximum; inconclusive = response in the unintended direction; inactive = score below 0.9.
Outcomes: YES = active, NO = inactive

* NCc1cccc(C2CCN(C(=O)c3ccc(C#Cc4ccccc4F)o3)CC2)c1 | NO
* Cc1occc1C(=O)Nc1ccc(C(=O)N2CCC(F)(F)/C(=C\C(=O)N3CCC(N4CCCCC4)CC3)c3ccccc32)cc1 | NO
* CN(C)C(=O)C1(N2CCCCC2)CCN(CC[C@@]2(c3ccc(Cl)c(Cl)c3)CN(C(=O)c3ccccc3)CCO2)CC1 | YES
* Clc1ccccc1C(c1ccccc1)(c1ccccc1)n1ccnc1 | YES

----------
# MEASURED ON: human Peroxisome Proliferator-activated Receptor delta (PPARd), PPARD (gene 5467)
# PROTOCOL: ATG_PPARd_TRANS: Attagene TRANS-FACTORIAL HepG2 Assay for human Peroxisome Proliferator-activated Receptor delta (PPARd) (AID 2283002)
Records with an inconclusive call do not appear. The source made the active and inactive calls. How the source made its calls: active means hit-call score of the fitted dose curve at least 0.9, where 1 is the maximum; inconclusive means response in the unintended direction; inactive means score below 0.9.
PROPERTY: outcome

• Cc1cn([C@H]2C[C@H](N=[N+]=[N-])[C@@H](CO)O2)c(=O)[nH]c1=O = inactive
• O=C1O[C@H]([C@@H](O)CO)C(O)=C1O = inactive
• Cc1cc(F)ccc1-c1cc(N2CC[C@@H](O)[C@H]2CO)ncc1N(C)C(=O)C(C)(C)c1cc(C(F)(F)F)cc(C(F)(F)F)c1 = inactive
• CC[C@H](NC(=O)c1cc(F)ccc1NS(=O)(=O)c1cccc2cccnc12)c1ccccc1 = inactive
• CN(C[C@@H](CC[N+]12CCC(C3CCCCC3)(CC1)CC2)c1ccc(Cl)c(Cl)c1)C(=O)c1cc(C(F)(F)F)cc(C(F)(F)F)c1 = inactive
• O=C(OCCCCCCOC(=O)c1ccccc1)c1ccccc1 = inactive

----------
# Read-out: Interleukin-8 (IL8), CXCL8 (gene 3576)
# PROTOCOL: BSK_hDFCGF_IL8: BioMAP Diversity Plus: hDFCGF Assay for Interleukin-8 (IL8) Biomarker Activity (AID 2283058)
# CONDITION SUMMARY: primary human foreskin fibroblasts; actives raise or lower the signal
Calls of active or inactive are those of the source. How the source made its calls: active means hit-call score of the fitted dose curve at least 0.9, where 1 is the maximum; inactive means score below 0.9.
Outcomes: active, inactive

• Oc1ccc2ccccc2c1 = inactive
• OCCO = inactive
• CCN(Cc1cccnc1)C(=O)c1cccc(Cl)c1[C@]1(C)C(=O)N(Cc2ccc(OC)cc2OC)c2ccc(Cl)cc21 = inactive
• CCCCCCCCCCCCO = active
• Cc1cccc2ccccc12 = inactive
• CCCCCCCC[Si](OCC)(OCC)OCC = inactive
• CN(C)c1ccc(C(=C2C=CC(=[N+](C)C)C=C2)c2ccc(N(C)C)cc2)cc1 = active
• O=C(O)Cc1cc(I)c(Oc2ccc(O)c(I)c2)c(I)c1 = inactive
• CCCCCCCCCC(=O)O = inactive
• O=C1CCC(C2CCCCC2)CC1 = active
• Cc1ccc2oc(CN(Cc3ccccc3)C(=O)Nc3c(F)cc(F)cc3F)c(-c3ccc(Cl)cc3)c2c1 = inactive
• Clc1ccccc1C(c1ccccc1)(c1ccccc1)n1ccnc1 = active
• CC(C)(c1cc(Br)c(O)c(Br)c1)c1cc(Br)c(O)c(Br)c1 = active
• CCN(CC)C(=O)c1cc(S(=O)(=O)Cc2ccccc2)c(N2CCC(c3ccccc3)CC2)cc1N(CC)CCN(C)C = inactive
• O=C(OCCCCCCOC(=O)c1ccccc1)c1ccccc1 = inactive
• CCCCCc1ccc(N)cc1 = inactive
• CN1C(=O)N(c2ccccc2Br)Cc2cnc(Nc3ccc4c(c3)OCC(CO)O4)nc21 (configuration not stated) = active
• CN(C)C(=O)C1(N2CCCCC2)CCN(CC[C@@]2(c3ccc(Cl)c(Cl)c3)CN(C(=O)c3ccccc3)CCO2)CC1 = active
• CC[C@@H]1C[C@H](N(Cc2cc(C(F)(F)F)cc(C(F)(F)F)c2)C(C)=O)c2cc(C(F)(F)F)ccc2N1C(=O)OC(C)C = inactive
• Cc1ncc(CO)c(CO)c1O = inactive
• CC/C(=C(/CC)c1ccc(O)cc1)c1ccc(O)cc1 = inactive
• CCCCOC(=O)CC(CC(=O)OCCCC)(OC(C)=O)C(=O)OCCCC = inactive

----------
# Read-out: Interferon-gamma inducible Protein 10 (IP10), CXCL10 (gene 3627)
# PROTOCOL: BSK_KF3CT_IP10: BioMAP Diversity Plus: KF3CT Assay for Interferon-gamma inducible Protein 10 (IP10) Biomarker Activity (AID 2283068)
# CONDITION SUMMARY: primary human keratinocytes with fibroblasts; actives raise or lower the signal
Active and inactive are the calls of the source. The calls were made as follows: active = hit-call score of the fitted dose curve at least 0.9, where 1 is the maximum; inactive = score below 0.9.
Outcomes: active, inactive

* CCCCCCCCCCCC[N+](C)(C)C | active
* Cc1ccc2oc(CN(Cc3ccccc3)C(=O)Nc3c(F)cc(F)cc3F)c(-c3ccc(Cl)cc3)c2c1 | inactive
* O=C1CCC(C2CCCCC2)CC1 | active
* Cc1cc(F)ccc1-c1cc(N2CC[C@@H](O)[C@H]2CO)ncc1N(C)C(=O)C(C)(C)c1cc(C(F)(F)F)cc(C(F)(F)F)c1 | active
* COc1cc(C(=O)NC2CCN(C)CC2)ccc1Nc1ncc2c(n1)N(C1CCCC1)CC(F)(F)C(=O)N2C | active
* CCCCCCCC[Si](OCC)(OCC)OCC | active
* Cc1ncc(CO)c(CO)c1O | inactive
* Clc1ccccc1C(c1ccccc1)(c1ccccc1)n1ccnc1 | active
* CCCCCc1ccc(N)cc1 | active
* NCc1cccc(C2CCN(C(=O)c3ccc(C#Cc4ccccc4F)o3)CC2)c1 | active
* O=CCCCC=O | active
* OCCO | inactive

----------
# Read-out: Peroxisomal acyl-coenzyme A oxidase 1 (ACOX1) gene, ACOX1 (gene 51)
# PROTOCOL: LTEA_HepaRG_ACOX1: Life Technologies and Expression Analysis (LTEA) Assay for Peroxisomal acyl-coenzyme A oxidase 1 (ACOX1) gene using HepaRG (AID 2283467)
# CONDITION SUMMARY: mRNA level, 48 h; actives raise or lower the signal
Activity calls are given as the source filed them. The calls were made as follows: active = hit-call score of the fitted dose curve at least 0.9, where 1 is the maximum; inactive = score below 0.9.
Outcomes: active, inactive

* OCCO | inactive
* O=c1[nH]sc2ccccc12 | inactive
* O=C1CCC(C2CCCCC2)CC1 | inactive
* CCN(CC)C(=O)c1cc(S(=O)(=O)Cc2ccccc2)c(N2CCC(c3ccccc3)CC2)cc1N(CC)CCN(C)C | active
* O=C1c2ccccc2C(=O)N1CCc1noc(-c2ccc(CN3CCCCCC3)s2)n1 | inactive
* O=C(O)Cn1c(=O)n(Cc2ccc(Br)cc2F)c(=O)c2ccc(Cl)cc21 | inactive
* Cc1cn([C@H]2C[C@H](N=[N+]=[N-])[C@@H](CO)O2)c(=O)[nH]c1=O | inactive
* c1ccc2ccccc2c1 | inactive
* CCN(Cc1cccc(S(=O)(=O)O)c1)c1ccc(C(=C2C=CC(=[N+](CC)Cc3cccc(S(=O)(=O)O)c3)C=C2)c2ccccc2S(=O)(=O)[O-])cc1 | inactive
* Clc1ccccc1C(c1ccccc1)(c1ccccc1)n1ccnc1 | active
* O=CCCCC=O | inactive

----------
# Read-out: sulfotransferase 2A1 (SULT2A1), SULT2A1 (gene 6822)
# PROTOCOL: LTEA_HepaRG_SULT2A1: Life Technologies and Expression Analysis (LTEA) Assay for sulfotransferase 2A1 (SULT2A1) using HepaRG (AID 2283531)
# CONDITION SUMMARY: mRNA level, 48 h; actives raise or lower the signal
Active and inactive are the calls of the source. How the source made its calls: active means hit-call score of the fitted dose curve at least 0.9, where 1 is the maximum; inactive means score below 0.9.
Outcomes: active, inactive

- CCN(CC)C(=O)c1cc(S(=O)(=O)Cc2ccccc2)c(N2CCC(c3ccccc3)CC2)cc1N(CC)CCN(C)C: active
- Cc1cc(F)ccc1-c1cc(N2CC[C@@H](O)[C@H]2CO)ncc1N(C)C(=O)C(C)(C)c1cc(C(F)(F)F)cc(C(F)(F)F)c1: active
- CCOC(=O)O[C@H](C)OC(=O)c1ccc2c(c1)cc(C(=O)NC1CCN(C(C)C)CC1)n2Cc1cc(-c2ccc(Cl)s2)on1: inactive
- CC/C(=C(/CC)c1ccc(O)cc1)c1ccc(O)cc1: active
- CN1C(=O)CC[C@H]1c1cccnc1: inactive
- O=CCCCC=O: inactive
- CC(C)(O)c1ccc(CNC(=O)c2cccnc2Oc2ccc3nonc3c2)cc1: inactive
- CC(C)(C)c1csc(-c2cc3cc(OCc4ccccc4CC(=O)O)ccc3o2)n1: active
- CCCCCc1ccc(N)cc1: inactive
- O=c1[nH]sc2ccccc12: inactive
- Oc1ccc2ccccc2c1: inactive
- CN(C[C@@H](CC[N+]12CCC(C3CCCCC3)(CC1)CC2)c1ccc(Cl)c(Cl)c1)C(=O)c1cc(C(F)(F)F)cc(C(F)(F)F)c1: active
- CC1=CC(=O)/C(=C(/C)O)C(=O)O1: inactive
- O=C1O[C@H]([C@@H](O)CO)C(O)=C1O: inactive
- CC(=O)N1CCN(c2ccc(OC[C@H]3CO[C@](Cn4ccnc4)(c4ccc(Cl)cc4Cl)O3)cc2)CC1: active
- CCCOC(=O)c1cc(O)c(O)c(O)c1: inactive
- COc1cc(C(=O)NC2CCN(C)CC2)ccc1Nc1ncc2c(n1)N(C1CCCC1)CC(F)(F)C(=O)N2C: active
- COCC(C)OCC(C)OCC(C)O (stereo not drawn): inactive
- CCCCCCCCN(C)CCCCCCCC: inactive
- CCN(Cc1cccnc1)C(=O)c1cccc(Cl)c1[C@]1(C)C(=O)N(Cc2ccc(OC)cc2OC)c2ccc(Cl)cc21: active
- CCCCOC(=O)CC(CC(=O)OCCCC)(OC(C)=O)C(=O)OCCCC: inactive
- Cc1cc2c(cc1C(F)(F)F)N(C(=O)Nc1ccc(Oc3cccnc3C)nc1)CC2: inactive
- CN1C(=O)N(c2ccccc2Br)Cc2cnc(Nc3ccc4c(c3)OCC(CO)O4)nc21 (stereo not drawn): active
